Below, each of the compounds is paired with its reported MSCnovo value.
- Tested on: E. coli BW25113
- method-notes: microbe, parasite or virus in culture
- Type: cell-based, Escherichia coli
- details: novobiocin concentration in the combination giving the lowest FICi; E. coli BW25113
Peptide text beside a SMILES is read from it.
Expressed in µg/mL, but write only the number.

Illustrative cases are given below, each with its answer.
CC[C@H](C)[C@H](NC(=O)[C@H](Cc1c[nH]c2ccccc12)NC(=O)[C@H](CCCCN)NC(=O)[C@H](CCCCN)NC(=O)[C@H](CC(C)C)NC(=O)[C@H](CCCNC(=N)N)NC(=O)[C@H](Cc1ccccc1)NC(=O)[C@@H](N)C(C)C)C(=O)N[C@@H](CCC(N)=O)C(=O)N[C@@H](CCCCN)C(=O)N[C@H](C(=O)N[C@@H](C)C(N)=O)C(C)C [peptide 19] (H-VFRLKKWIQKVA-NH2); 3.125
CC[C@H](C)[C@H](NC(=O)[C@@H](NC(=O)[C@H](CCCCN)NC(=O)[C@H](CCC(N)=O)NC(=O)[C@@H](NC(=O)[C@H](Cc1c[nH]c2ccccc12)NC(=O)[C@H](CCCCN)NC(=O)[C@H](CCCCN)NC(=O)[C@H](CC(C)C)NC(=O)[C@H](C)NC(=O)[C@H](Cc1ccccc1)NC(=O)[C@@H](N)C(C)C)[C@@H](C)CC)C(C)C)C(N)=O [peptide 10] (H-VFALKKWIQKVI-NH2); 6.25

Moving on to another compound below.
Form entry - test system: E. coli BW25113; read-out: MSCnovo; compound: CC[C@H](C)[C@H](NC(=O)[C@@H](NC(=O)[C@H](CCCCN)NC(=O)[C@H](CCC(N)=O)NC(=O)[C@@H](NC(=O)[C@H](Cc1c[nH]c2ccccc12)NC(=O)[C@H](CCCCN)NC(=O)[C@H](CCCCN)NC(=O)[C@H](CC(C)C)NC(=O)[C@H](CCCNC(=N)N)NC(=O)[C@H](Cc1ccccc1)NC(=O)[C@@H](N)C(C)C)[C@@H](C)CC)C(C)C)C(N)=O [peptide 6] (H-VFRLKKWIQKVI-NH2)
25

====

- Tested on: E. coli BW25113
- method-notes: microbe, parasite or virus in culture
- Format: cell-based, Escherichia coli
- details: novobiocin concentration in the combination giving the lowest FICi; E. coli BW25113
Bridge positions count the residues as written; N and C are the ends. Square brackets hold non-standard residues; d marks the D form. Peptide text beside a SMILES is read from it. Dab = NCC[C@H](N)C(=O)O
result-type: MSCnovo (µg/mL)
Expressed in µg/mL, but write only the number.

CC[C@H](C)[C@H](NC(=O)[C@@H](NC(=O)[C@H](CCCCN)NC(=O)[C@H](CCC(N)=O)NC(=O)[C@@H](NC(=O)[C@H](C)NC(=O)[C@H](CCCCN)NC(=O)[C@H](CCCCN)NC(=O)[C@H](CC(C)C)NC(=O)[C@H](CCCNC(=N)N)NC(=O)[C@H](Cc1ccccc1)NC(=O)[C@@H](N)C(C)C)[C@@H](C)CC)C(C)C)C(N)=O [peptide 14] (H-VFRLKKAIQKVI-NH2); 6.25

Moving on to another compound below.
Give the measured MSCnovo of CC(C)C[C@@H]1NC(=O)[C@@H](Cc2ccccc2)NC(=O)[C@H](CCN)NC(=O)[C@@H](NC(=O)[C@H](CCN)NC(=O)[C@@H](N)[C@@H](C)O)CCNC(=O)[C@H]([C@@H](C)O)NC(=O)[C@H](CCN)NC(=O)[C@H](CCN)NC1=O [PMBN, polymyxin B nonapeptide, reference compound] (H-T[Dab][Dab][Dab][dF]L[Dab][Dab]T; lactam 3-C (inferred); N-terminus assumed) .
6.25

====

- Test system: E. coli BW25113
- method-notes: microbe, parasite or virus in culture
- Type: cell-based, Escherichia coli
- details: vancomycin concentration in the combination giving the lowest FICi; E. coli BW25113
Peptide text beside a SMILES is read from it.
result-type: MSCvanco (µg/mL)
Expressed in µg/mL, but write only the number.

Give the measured MSCvanco of CC[C@H](C)[C@H](NC(=O)[C@H](Cc1c[nH]c2ccccc12)NC(=O)[C@H](CCCCN)NC(=O)[C@H](CCCCN)NC(=O)[C@H](CC(C)C)NC(=O)[C@H](CCCNC(=N)N)NC(=O)[C@H](Cc1ccccc1)NC(=O)[C@@H](N)C(C)C)C(=O)N[C@@H](CCC(N)=O)C(=O)N[C@@H](CCCCN)C(=O)N[C@H](C(=O)N[C@@H](C)C(N)=O)C(C)C [peptide 19] (H-VFRLKKWIQKVA-NH2) .
6.25

====

- System: E. coli BW25113
- method-notes: Checkerboard assay with erythromycin
- Format: cell-based, Escherichia coli
- details: erythromycin concentration in the combination with the synergist giving the lowest FICi; E. coli BW25113
Bridge positions count the residues as written; N and C are the ends. Square brackets hold non-standard residues; d marks the D form. Peptide text beside a SMILES is read from it. Dab = NCC[C@H](N)C(=O)O
Below, each of the compounds is paired with its reported MSCery value.
Expressed in µg/mL, but write only the number.

Illustrative cases are given below, each with its answer.
CC[C@H](C)[C@H](NC(=O)[C@@H](NC(=O)[C@H](C)NC(=O)[C@H](CCC(N)=O)NC(=O)[C@@H](NC(=O)[C@H](Cc1c[nH]c2ccccc12)NC(=O)[C@H](CCCCN)NC(=O)[C@H](CCCCN)NC(=O)[C@H](CC(C)C)NC(=O)[C@H](CCCNC(=N)N)NC(=O)[C@H](Cc1ccccc1)NC(=O)[C@@H](N)C(C)C)[C@@H](C)CC)C(C)C)C(N)=O [compound 17] (H-VFRLKKWIQAVI-NH2); 6.25
CC[C@H](C)[C@H](NC(=O)[C@@H](NC(=O)[C@H](CCCCN)NC(=O)[C@H](CCC(N)=O)NC(=O)[C@@H](NC(=O)[C@H](Cc1c[nH]c2ccccc12)NC(=O)[C@H](CCCCN)NC(=O)[C@H](C)NC(=O)[C@H](CC(C)C)NC(=O)[C@H](CCCNC(=N)N)NC(=O)[C@H](Cc1ccccc1)NC(=O)[C@@H](N)C(C)C)[C@@H](C)CC)C(C)C)C(N)=O [compound 12] (H-VFRLAKWIQKVI-NH2); 1.563
CC[C@H](C)[C@H](NC(=O)[C@@H](NC(=O)[C@H](CCCCN)NC(=O)[C@H](CCC(N)=O)NC(=O)[C@@H](NC(=O)[C@H](Cc1c[nH]c2ccccc12)NC(=O)[C@H](CCCCN)NC(=O)[C@H](CCCCN)NC(=O)[C@H](CC(C)C)NC(=O)[C@H](CCCNC(=N)N)NC(=O)[C@H](C)NC(=O)[C@@H](N)C(C)C)[C@@H](C)CC)C(C)C)C(N)=O [peptide 9] (H-VARLKKWIQKVI-NH2); 12.5
CC(C)C[C@@H]1NC(=O)[C@@H](Cc2ccccc2)NC(=O)[C@H](CCN)NC(=O)[C@@H](NC(=O)[C@H](CCN)NC(=O)[C@@H](N)[C@@H](C)O)CCNC(=O)[C@H]([C@@H](C)O)NC(=O)[C@H](CCN)NC(=O)[C@H](CCN)NC1=O [PMBN, polymyxin B nonapeptide, reference compound] (H-T[Dab][Dab][Dab][dF]L[Dab][Dab]T; lactam 3-C (inferred); N-terminus assumed); 12.5

Give the measured MSCery of CC[C@H](C)[C@H](NC(=O)[C@@H](NC(=O)[C@H](CCCCN)NC(=O)[C@H](CCC(N)=O)NC(=O)[C@@H](NC(=O)[C@H](Cc1c[nH]c2ccccc12)NC(=O)[C@H](CCCCN)NC(=O)[C@H](CCCCN)NC(=O)[C@H](CC(C)C)NC(=O)[C@H](CCCNC(=N)N)NC(=O)[C@H](Cc1ccccc1)NC(=O)[C@H](C)N)[C@@H](C)CC)C(C)C)C(N)=O [peptide 8] (H-AFRLKKWIQKVI-NH2) .
12.5

Give the measured MSCery of CC[C@H](C)[C@H](NC(=O)[C@@H](NC(=O)[C@H](CCCCN)NC(=O)[C@H](CCC(N)=O)NC(=O)[C@@H](NC(=O)[C@H](Cc1c[nH]c2ccccc12)NC(=O)[C@H](C)NC(=O)[C@H](CCCCN)NC(=O)[C@H](CC(C)C)NC(=O)[C@H](CCCNC(=N)N)NC(=O)[C@H](Cc1ccccc1)NC(=O)[C@@H](N)C(C)C)[C@@H](C)CC)C(C)C)C(N)=O [compound 13] (H-VFRLKAWIQKVI-NH2) .
3.125

Give the measured MSCery of CC[C@H](C)[C@H](NC(=O)[C@@H](NC(=O)[C@H](CCCCN)NC(=O)[C@H](CCC(N)=O)NC(=O)[C@@H](NC(=O)[C@H](Cc1c[nH]c2ccccc12)NC(=O)[C@H](CCCCN)NC(=O)[C@H](CCCCN)NC(=O)[C@H](CC(C)C)NC(=O)[C@H](CCCNC(=N)N)NC(=O)[C@H](Cc1ccccc1)NC(=O)[C@@H](NC(C)=O)C(C)C)[C@@H](C)CC)C(C)C)C(=O)O [peptide 5] (Ac-VFRLKKWIQKVI-OH) .
6.25
